Reference for the values: patent US6914045B2

test system: Staphylococcus sp.; test: in vitro antibacterial evaluation, MIC by broth dilution; format: cell-based; settings: broth dilution, 18 hours at 35° C., inoculum 5×10^5 CFU/mL; strain GC 1131
Measurement Label: MIC Staphylococcus aureus (GC 1131)

CC(c1ccccc1)C1NC(=O)CNC(=O)C(CO)NC(=O)C(C(O)C2CNC(=N)N2C2OC(CO)C(O)C(O)C2O)NC(=O)C(C(O)C2CNC(=N)N2)NC(=O)C(Cc2ccc(OC3OC(CO)C(OC4OC5COC(c6ccc(-c7cccs7)cc6)OC5C(O)C4O)C(O)C3O)cc2)NC1=O (stereo not shown) [Example 163]    4 µg/mL
CC(c1ccccc1)C1NC(=O)CNC(=O)C(CO)NC(=O)C(C(O)C2CNC(=N)N2C2OC(CO)C(O)C(O)C2O)NC(=O)C(C(O)C2CNC(=N)N2)NC(=O)C(Cc2ccc(OC3OC(CO)C(OC4OC5COC(c6ccccc6)OC5C(O)C4O)C(O)C3O)c(I)c2)NC1=O (stereo not shown) [Example 196]    >64 µg/mL
COc1cccc(C2OC3C(OC4C(CO)OC(Oc5ccc(CC6NC(=O)C(C(C)c7ccccc7)NC(=O)CNC(=O)C(CO)NC(=O)C(C(O)C7CNC(=N)N7C7OC(CO)C(O)C(O)C7O)NC(=O)C(C(O)C7CNC(=N)N7)NC6=O)cc5)C(O)C4O)OC(CO)C(O)C3O2)c1 (single isomer, unassigned) [Example 137b]    16 µg/mL
CC(c1ccccc1)C1NC(=O)CNC(=O)C(CO)NC(=O)C(C(O)C2CNC(=N)N2C2OC(CO)C(O)C(O)C2O)NC(=O)C(C(O)C2CNC(=N)N2)NC(=O)C(Cc2ccc(OC3OC(CO)C(OC4OC5COC(CCc6ccccc6)OC5C(O)C4O)C(O)C3O)cc2)NC1=O (stereo not shown) [Example 124]    2 µg/mL
Cc1ccc(Oc2ccc(C3OCC4OC(OC5C(CO)OC(Oc6ccc(CC7NC(=O)C(C(C)c8ccccc8)NC(=O)CNC(=O)C(CO)NC(=O)C(C(O)C8CNC(=N)N8C8OC(CO)C(O)C(O)C8O)NC(=O)C(C(O)C8CNC(=N)N8)NC7=O)cc6)C(O)C5O)C(O)C(O)C4O3)cc2)cc1 (stereo not shown) [Example 174]    1 µg/mL
CC(C)=CCCC(C)C1OCC2OC(OC3C(CO)OC(Oc4ccc(CC5NC(=O)C(C(C)c6ccccc6)NC(=O)CNC(=O)C(CO)NC(=O)C(C(O)C6CNC(=N)N6C6OC(CO)C(O)C(O)C6O)NC(=O)C(C(O)C6CNC(=N)N6)NC5=O)cc4)C(O)C3O)C(O)C(O)C2O1 (stereo not shown) [Example 125]    32 µg/mL
CC(c1ccccc1)C1NC(=O)CNC(=O)C(CO)NC(=O)C(C(O)C2CNC(=N)N2C2OC(CO)C(O)C(O)C2O)NC(=O)C(C(O)C2CNC(=N)N2)NC(=O)C(Cc2ccc(OC3OC(CO)C(OC4OC5COC(C6CCCCC6)OC5C(O)C4O)C(O)C3O)cc2)NC1=O (stereo not shown) [Example 112]    0.5 to 1 µg/mL

* * *

Entries annotated with measured MIC Streptococcus agalactiae (GC 4564)
test system: Streptococcus sp.; experiment: in vitro antibacterial evaluation, MIC by broth dilution; format: cell-based; conditions: broth dilution, inoculum 5×10^5 CFU/mL, 18 hours at 35° C.; strain GC 4564
Measurement Label: MIC Streptococcus agalactiae (GC 4564)

CC(c1ccccc1)C1NC(=O)CNC(=O)C(CO)NC(=O)C(C(O)C2CNC(=N)N2C2OC(CO)C(O)C(O)C2O)NC(=O)C(C(O)C2CNC(=N)N2)NC(=O)C(Cc2ccc(OC3OC(CO)C(OC4OC5COC(c6ccccc6)OC5C(O)C4O)C(O)C3O)c(I)c2)NC1=O (stereo not shown) [Example 196]    >64 µg/mL
CC(c1ccccc1)C1NC(=O)CNC(=O)C(CO)NC(=O)C(C(O)C2CNC(=N)N2C2OC(CO)C(O)C(O)C2O)NC(=O)C(C(O)C2CNC(=N)N2)NC(=O)C(Cc2ccc(OC3OC(CO)C(OC4OC(CO)C(OCC=C(c5ccccc5)c5ccccc5)C(O)C4O)C(O)C3O)cc2)NC1=O (stereo not shown) [Example 241a]    <0.06 µg/mL
N=C1NCC(C(O)C2NC(=O)C(Cc3ccc(OC4OC(CO)C(OC5OC6COC7(OC6C(O)C5O)C5CC6CC(C5)CC7C6)C(O)C4O)cc3)NC(=O)C(Cc3ccccc3)NC(=O)CNC(=O)C(CO)NC(=O)C(C(O)C3CNC(=N)N3C3OC(CO)C(O)C(O)C3O)NC2=O)N1 (stereo not shown) [Example 220]    <0.06 µg/mL
COc1ccc(COCC2OC(OC3C(CO)OC(Oc4ccc(CC5NC(=O)C(C(C)c6ccccc6)NC(=O)CNC(=O)C(CO)NC(=O)C(C(O)C6CNC(=N)N6C6OC(CO)C(O)C(O)C6O)NC(=O)C(C(O)C6CNC(=N)N6)NC5=O)cc4)C(O)C3O)C(O)C(O)C2O)cc1F (stereo not shown) [Example 237]    2 µg/mL
